Molecular target: Renilla luciferase (Renilla reniformis, UniProt P27652)
Experiment: Quaternary ammonium/phosphonium detergent screen, Renilla luciferase (Example 5)
Assay type: biochemical
Conditions: final conc. 0.03% detergent; Tergitol NP-9 present; read-out: Retained Renilla Luciferase Luminescence (%)
quantity_name: remaining activity at 0.03 %
Respond with a number, then the unit of measure.

Here is how some compounds turned out for remaining activity at 0.03 %.
C[N+](C)(C)Cc1ccccc1.[Br-] [Benzyltrimethylammonium bromide] ... 95%
CCCCCCCCCCCC[N+](C)(C)Cc1ccccc1.[Br-] [Benzyldimethyldodecylammonium bromide] ... 25%
C[P+](C)(Cc1ccc([N+](=O)[O-])cc1)c1ccccc1.[Br-] ... 78%
C=CCCC[P+](c1ccccc1)(c1ccccc1)c1ccccc1.[Br-] ... 57%
CC[N+](CC)(CC)Cc1ccccc1.[Br-] [Benzyltriethylammonium bromide] ... 95%

For each entry beneath this line, provide reported remaining activity at 0.03 %.
1. CCCCCCCCCCC(C(=O)c1ccc(OC)cc1)[N+](C)(C)C.[Br-] (centres unmarked)
2. CC[P+](CC)(CC)Cc1ccccc1.[Br-] [Benzyltriethylphosphonium bromide]
3. CCCCCCCCCCCCCCCC[N+](C)(C)Cc1ccccc1.[Cl-] [Benzyldimethylhexadecylammonium chloride]
4. C[P+](CCCC(=O)O)(c1ccccc1)c1ccccc1.[Cl-]
5. CC=CC[P+](Cc1ccccc1)(c1ccccc1)c1ccccc1.[Br-]
6. CC[N+](C)(C)c1cccc(O)c1 [Edrophonium chloride]
7. CCCC[P+](CCCC)(CCCC)Cc1ccc(C)cc1.[Cl-]
8. CCCCCCCCCC[N+](C)(C)Cc1ccccc1.[Cl-] [Benzyldimethyldecylammonium chloride]

-- reply
1: 20%; 2: 88%; 3: 47%; 4: 99%; 5: 50%; 6: 93%; 7: 65%; 8: 18%

-- ask I would be grateful if you could share the reported remaining activity at 0.03 % for C=C(C)[P+](C)(c1ccccc1)c1ccccc1.[I-] .
-- reply 82%

###

Target: Renilla luciferase (Renilla reniformis, UniProt P27652)
Experiment: Detergent titration with Tergitol NP-9, digitonin or no lysing agent, Renilla luciferase (Example 4)
Type: biochemical
Details: 0.0005% detergent; Dig
quantity_name: Selective Inhibition (Ff Luc Inh/Ren Luc Inh)

CCCCCCCCCCCCCCCC[N+](C)(C)C.[Cl-] [Cetyltrimethylammonium chloride] ... 12
CCCCCCCCCCCCCC[N+](C)(C)Cc1ccccc1.[Br-] [Benzyldimethyltetradecylammonium bromide] ... 11.0
Cc1cc(C)c(C[N+](C)(C)C)cc1C.[Br-] ... 1.8

Give one value of Selective Inhibition (Ff Luc Inh/Ren Luc Inh) per listed molecule.
1. CCCCCCCCCCCC[N+](C)(C)C.[Br-] [Dodecyltrimethylammonium bromide]
2. CCCCC[N+](CCCCC)(CCCCC)CCCCC.[Br-] [Tetrapentylammonium bromide]
3. CCCCCCCCCCCC[N+](C)(C)Cc1ccccc1.[Br-] [Benzyldimethyldodecylammonium bromide]

-- reply
1.1
1.0
1.8

###

Biological target: UniProt P27652
Assay: biochemical
Assay type: biochemical
Conditions: retained firefly / retained Renilla; 0.5% detergent
Experimental: The retained luminescence for each luciferase was calculated by dividing the luminescence in the presence of the detergent by the luminescence in the absence of the test detergent. The selectivity value for each of the test detergents was determined by dividing the retained firefly luciferase luminescence by the retained Renilla luciferase luminescence. […]
quantity_name: Selectivity Value
One number for each entry.

Please go through the list and note Selectivity Value for each compound.
1. [Br-].c1ccc([P+](c2ccccc2)(c2ccccc2)c2ccccc2)cc1 [Tetraphenylphosphonium bromide]
2. C[C@H](CCC(=O)NCCC[N+](C)(C)CC(O)CS(=O)(=O)[O-])[C@H]1CC[C@H]2[C@@H]3[C@H](O)C[C@@H]4C[C@H](O)CC[C@]4(C)[C@H]3C[C@H](O)[C@]12C (stereo partly shown)
3. C[N+](C)(C)CCBr.[Br-] [(2-Bromoethyl)trimethylammonium bromide]
4. CCCCCCCC[N+](CCCCCCCC)(CCCCCCCC)CCCCCCCC.[Br-] [Tetraoctylammonium bromide]

-- reply
1: 3.7; 2: 1.3; 3: 1.2; 4: 1.0

###

Would you mind telling me the reported Selectivity Value of each entry?
Biological target: Renilla luciferase (Renilla reniformis, UniProt P27652)
Sequence (P27652 1-311): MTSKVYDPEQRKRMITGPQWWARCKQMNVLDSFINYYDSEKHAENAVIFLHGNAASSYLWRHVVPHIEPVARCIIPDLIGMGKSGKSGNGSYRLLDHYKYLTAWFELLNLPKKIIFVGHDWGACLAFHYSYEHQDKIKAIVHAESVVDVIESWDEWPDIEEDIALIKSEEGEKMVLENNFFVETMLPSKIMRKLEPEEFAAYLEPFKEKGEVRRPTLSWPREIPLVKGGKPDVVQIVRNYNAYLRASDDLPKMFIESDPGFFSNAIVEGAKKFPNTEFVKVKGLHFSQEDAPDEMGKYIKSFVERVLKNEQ
Test: Non-detergent compound screen, Renilla luciferase (Example 6)
Type: biochemical
Conditions: inhibitor 23 μM
Give bare numbers.

Sample records with Selectivity Value:
COc1ccc(COC(=O)/C=C/c2ccc3[nH]cc(CCN(C)C)c3c2)cc1 [Compound 3045] ... 1.0
C=C(C(=O)NCc1ccc(OC)cc1)c1ccc2[nH]ccc2c1 [Compound 3054] ... 1.1

Batch request: Selectivity Value per item, same order as input.
1. COc1ccc(CNC(=O)COc2ccc3[nH]cc(CCN(C)C)c3c2)cc1 [Compound 3031]
2. CCCCCCNC(=O)/C=C/c1ccc2[nH]cc(CCN(C)C)c2c1 [Compound 3050]
3. C=C(C(=O)NCc1ccc(OC)cc1)c1ccc2oc(=O)cc(C)c2c1 [Compound 3058]
4. COc1ccc(CNC(=O)/C(C#N)=C/CCCCCCCBr)cc1 [Compound 3059]
5. C=C(C(=O)NCc1ccc(OC)cc1)c1ccc2ncccc2c1 [Compound 3053]
6. COc1ccc(CNC(=O)/C=C/c2ccc3oc(=O)cc(C)c3c2)cc1 [Compound 3057]

-- reply
[1, 1.1, 1.05, 1.02, 1.1, 1]

###

Molecular target: UniProt:P27652
Experiment: Detergent titration with Tergitol NP-9, digitonin or no lysing agent, Renilla luciferase (Example 4)
Type: biochemical
Conditions: 0.0500% detergent; Water
For each entry below, report its Selective Inhibition (Ff Luc Inh/Ren Luc Inh) value.
Answers are plain numbers.

CCCCC[N+](CCCCC)(CCCCC)CCCCC.[Br-] [Tetrapentylammonium bromide] ... 3.0

Hey, can you go through the list below and give me Selective Inhibition (Ff Luc Inh/Ren Luc Inh) for every item?
1. CCCCCCCCCCCC[N+](C)(C)C.[Br-] [Dodecyltrimethylammonium bromide]
2. Cc1cc(C)c(C[N+](C)(C)C)cc1C.[Br-]
3. CCCCCCCCCCCC[N+](C)(C)Cc1ccccc1.[Br-] [Benzyldimethyldodecylammonium bromide]

-- reply
1: 110; 2: 50; 3: 3627

Each compound below has a recorded value; state its Selective Inhibition (Ff Luc Inh/Ren Luc Inh).
1. CCCCCCCCCCCCCC[N+](C)(C)Cc1ccccc1.[Br-] [Benzyldimethyltetradecylammonium bromide]
2. CCCCCCCCCCCCCCCC[N+](C)(C)C.[Cl-] [Cetyltrimethylammonium chloride]

-- reply
451
1611

###

Molecular target: Renilla luciferase (Renilla reniformis)
Assay: Non-detergent compound screen, Renilla luciferase (Example 6)
Assay type: biochemical
Settings: inhibitor 10 μM
quantity_name: Selectivity Value
Give bare numbers.

In the examples that follow, each entry is paired with its recorded Selectivity Value.
COc1ccc(CNC(=O)/C=C/c2ccc3[nH]ccc3c2)cc1 [Compound 3056] ... 1.1
COc1ccc(CNC(=O)/C=C/c2ccc3ncccc3c2)cc1 [Compound 3046] ... 1.0
COc1ccc(CNC(=O)/C=C/c2ccc3[nH]cc(CN(C)C)c3c2)cc1 [Compound 3067] ... 1.3
COc1ccc(CNC(=O)/C=C/c2ccc3[nH]cc(CCN(C)C)c3c2)cc1 [Compound 3068] ... 2.5
COc1ccc(CNC(=O)/C(C#N)=C/c2ccc3[nH]cc(CCN(C)C)c3c2)cc1 [Compound 3044] ... 1.2

For each of the compounds below, note its Selectivity Value.
1. COc1ccc(CCNC(=O)/C=C/c2ccc3[nH]cc(CCN(C)C)c3c2)cc1 [Compound 3062]
2. COc1ccc(CNC(=O)/C=C/c2ccc3c(c2)c(CCN(C)C)cn3Cc2ccccc2)cc1 [Compound 3055]
3. CCCCCCCC[N+](C)(C)CCc1c[nH]c2ccc(/C=C/C(=O)NCc3ccc(OC)cc3)cc12.[I-] [Compound 3070]

-- reply
1. 1.4
2. 1.2
3. 3.3

###

Biological target: Renilla luciferase (Renilla reniformis)
Experiment: Quaternary ammonium/phosphonium detergent screen, Renilla luciferase (Example 5)
Assay type: biochemical
Conditions: final conc. 0.03% detergent
Please provide measured Selectivity Value for the entries that follow.
One number for each entry.

C=CCCC[P+](c1ccccc1)(c1ccccc1)c1ccccc1.[Br-] ... 1.7

Count: 4. Required value per item: Selectivity Value.
1. CC1(C)C=Cc2ccccc2[N+]1(C)C.[I-]
2. C[P+](CCCC(=O)O)(c1ccccc1)c1ccccc1.[Cl-]
3. C=C(C)[P+](C)(c1ccccc1)c1ccccc1.[I-]
4. CCCCCCCCCCC(C(=O)c1ccc(OC)cc1)[N+](C)(C)C.[Br-] (centres unmarked)

-- reply
[1.0, 1.0, 1.2, 5.3]

# batch size: 4; output Selectivity Value per entry
1. C[N+](C)(Cc1ccccc1)c1ccccc1.[Br-] [Benzyldimethylphenylammonium bromide]
2. C[N+](C)(C)Cc1ccccc1.[Br-] [Benzyltrimethylammonium bromide]
3. CC[N+](C)(C)c1cccc(O)c1 [Edrophonium chloride]
4. C[N+](C)(Cc1ccccc1)c1ccccc1.[Cl-] [Benzyldimethylphenylammonium chloride]

-- reply
1: 1.3; 2: 1.0; 3: 1.0; 4: 2.2

Lab note: each molecule below needs its Selectivity Value filled in.
1. CC[P+](CC)(CC)Cc1ccccc1.[Br-] [Benzyltriethylphosphonium bromide]
2. CC=CC[P+](Cc1ccccc1)(c1ccccc1)c1ccccc1.[Br-]
3. CCCCCCCCCCCCCCCC[N+](C)(C)Cc1ccccc1.[Cl-] [Benzyldimethylhexadecylammonium chloride]
4. CCCCCCCCCCCC[N+](C)(C)Cc1ccccc1.[Br-] [Benzyldimethyldodecylammonium bromide]
5. C[N+]1(C)CCCc2cccc(O)c21.[I-]

-- reply
1.1
2.1
2.1
4
0.9

Can you give me Selectivity Value for all of these, one by one?
1. C[P+](C)(Cc1ccc([N+](=O)[O-])cc1)c1ccccc1.[Br-]
2. CC[N+](CC)(CC)Cc1ccccc1.[Br-] [Benzyltriethylammonium bromide]
3. CCCC[P+](CCCC)(CCCC)Cc1ccc(C)cc1.[Cl-]
4. CC[N+](CC)(CCC(=O)Nc1c(C)cccc1C)Cc1ccccc1.O=C([O-])c1ccccc1
5. C[N+](C)(C)Cc1ccccc1.[I-] [Bezyltrimethylammonium iodide]
6. CCCCCCCCCC[N+](C)(C)Cc1ccccc1.[Cl-] [Benzyldimethyldecylammonium chloride]

-- reply
1: 1.3; 2: 1.0; 3: 1.5; 4: 1.5; 5: 0.8; 6: 6.3
